The following molecules are listed with their measured logP values.
TEST_NAME: method code SF-AS, from DOI: 10.1248/cpb.30.4175, PMID: 7165882
VALUE_TYPE: logP

>  <SMILES_REPRESENTATION>
CN(C)C(=O)OCc1ccc(OCc2ccccc2)cc1

>  <TEST_RESULT>
3.27

$$$$
>  <SMILES_REPRESENTATION>
CN(C)C(=O)OCc1ccccc1

>  <TEST_RESULT>
2.16

$$$$
>  <SMILES_REPRESENTATION>
CN(C)C(=O)OCc1ccc(Cl)cc1

>  <TEST_RESULT>
2.93

$$$$
>  <SMILES_REPRESENTATION>
CN(C)C(=O)OCc1cccc(Cl)c1

>  <TEST_RESULT>
2.82

$$$$
>  <SMILES_REPRESENTATION>
COc1ccc(COC(=O)N(C)C)cc1

>  <TEST_RESULT>
2.2

$$$$
>  <SMILES_REPRESENTATION>
Cc1ccc(COC(=O)N(C)C)cc1

>  <TEST_RESULT>
2.63

$$$$
>  <SMILES_REPRESENTATION>
CN(C)C(=O)OCc1ccc(C#N)cc1

>  <TEST_RESULT>
1.67

$$$$
>  <SMILES_REPRESENTATION>
CN(C)C(=O)OCc1ccc([N+](=O)[O-])cc1

>  <TEST_RESULT>
1.95

$$$$
>  <SMILES_REPRESENTATION>
COc1cccc(COC(=O)N(C)C)c1

>  <TEST_RESULT>
2.09

$$$$
>  <SMILES_REPRESENTATION>
CN(C)C(=O)OCc1ccc(OC(=O)N(C)C)cc1

>  <TEST_RESULT>
1.59

$$$$
>  <SMILES_REPRESENTATION>
CN(C)C(=O)OCc1ccc(I)cc1

>  <TEST_RESULT>
3.32

$$$$
>  <SMILES_REPRESENTATION>
CN(C)C(=O)OCc1ccc(Br)cc1

>  <TEST_RESULT>
3.01

$$$$
>  <SMILES_REPRESENTATION>
CN(C)C(=O)OCc1ccc(F)cc1

>  <TEST_RESULT>
2.3

$$$$
